biological target: Carbonic anhydrase 1 (Homo sapiens, UniProt P00915); assay: Esterase Activity Assay; conditions: pH 7.4
Sequence (P00915 whole entry): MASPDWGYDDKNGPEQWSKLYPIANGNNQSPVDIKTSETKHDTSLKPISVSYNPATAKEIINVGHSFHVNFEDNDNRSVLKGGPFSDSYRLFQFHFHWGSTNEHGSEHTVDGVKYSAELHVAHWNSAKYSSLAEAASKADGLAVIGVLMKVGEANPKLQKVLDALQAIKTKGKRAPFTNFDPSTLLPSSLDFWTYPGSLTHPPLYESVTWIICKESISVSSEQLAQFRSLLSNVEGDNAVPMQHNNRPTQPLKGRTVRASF
For each record, write down the corresponding Ki.
Write the number in nM without appending the unit.

Req: Suppose we examine the compound `Oc1cc(O)c2c(c1)O[C@H](c1ccc(O)c(O)c1)[C@H](O)C2` ; what Ki value has been reported?
Resp: 2320

Req: Suppose we examine the compound CC(C)(O)[C@@H]1CC[C@](C)([C@H]2[C@@H](O)C[C@@]3(C)C4C[C@H](O[C@@H]5OC(CO)[C@@H](O)C(O)[C@@H]5O)C5C(C)(C)[C@@H](O[C@@H]6OC[C@@H](O)C(O)[C@@H]6O)CC[C@@]56C[C@@]46CC[C@]23C)O1 (stereo partly drawn) ; what Ki value has been reported?
Resp: 1470

Req: Suppose we examine the compound CC(C)(O)[C@@H]1CC[C@](C)([C@H]2[C@@H](O)C[C@@]3(C)C4C[C@H](O[C@@H]5OC[C@@H](O)C(O)[C@@H]5O)C5C(C)(C)[C@@H](O[C@@H]6OC[C@@H](O)C(O)[C@@H]6O)CC[C@@]56C[C@@]46CC[C@]23C)O1 (stereo partly drawn) ; what Ki value has been reported?
Resp: 2210
